Data origin, for the record: ChEMBL document CHEMBL4828714

test system: Staphylococcus aureus; experiment: Antimicrobial activity against Staphylococcus aureus Sau 745524 assessed as inhibition of bacterial growth incubated for 16 to 18 hrs by broth micro dilution technique; assay type: functional; conditions: time 16-18 hrs
Numbered stars: 1 amine (or outer) side, 2 acyl side, 3 side chain; on linkers, the order of the positions; unused ones are H or OH. Bridge positions count the residues as written; N and C are the ends. Square brackets hold non-standard residues; d marks the D form. Peptide text beside a SMILES is read from it. I, II: the chains in the order shown. Actinocin(1to9) = Cc1c2oc3c(C)ccc(C(=O)[*:2])c3nc-2c(C(=O)[*:1])c(N)c1=O; NMeV = CN[C@H](C(=O)O)C(C)C; Sar = CNCC(=O)O

compound | MIC
CC1(C)S[C@@H]2[C@H](NC(=O)[C@H](N)c3ccccc3)C(=O)N2[C@H]1C(=O)O [AMPICILLIN] | 2 µg/mL
Cc1c2oc3c(C)ccc(C(=O)N[C@@H]4C(=O)N[C@H](C(C)C)C(=O)N5CCC[C@H]5C(=O)N(C)CC(=O)N(C)[C@@H](C(C)C)C(=O)O[C@@H]4C)c3nc-2c(C(=O)N[C@@H]2C(=O)N[C@H](C(C)C)C(=O)N3CCC[C@H]3C(=O)N(C)CC(=O)N(C)[C@@H](C(C)C)C(=O)O[C@@H]2C)c(N)c1=O [DACTINOMYCIN] (I: T[dV]P[Sar][NMeV] / II: T[dV]P[Sar][NMeV]; ester I:1-I:C, II:1-II:C; linker I:N-II:N via Actinocin(1to9)) | 0.06 µg/mL
COc1c2oc3c(OC)ccc(C(=O)N[C@@H]4C(=O)N[C@H](C(C)C)C(=O)N5CCC[C@H]5C(=O)N(C)CC(=O)N(C)[C@@H](C(C)C)C(=O)O[C@@H]4C)c3nc-2c(C(=O)N[C@@H]2C(=O)N[C@H](C(C)C)C(=O)N3CCC[C@H]3C(=O)N(C)CC(=O)N(C)[C@@H](C(C)C)C(=O)O[C@@H]2C)c(N)c1=O | 2 µg/mL

----------
system: BEAS-2B; experiment: Cytotoxicity against human BEAS-2B cells assessed as growth inhibition incubated for 68 hrs by MTT assay; format: cell-based

structure.smiles | study.target | bound.type | IC50 / µM
CC(C)[C@H]1C(=O)O[C@H](C)[C@H](NC(=O)c2c3nc4c(C(=O)N[C@@H]5C(=O)N[C@H](C(C)C)C(=O)N6CCC[C@H]6C(=O)N(C)CC(=O)N(C)[C@@H](C(C)C)C(=O)O[C@@H]5C)ccc(Br)c4oc-3c(Br)c(=O)c2N)C(=O)N[C@H](C(C)C)C(=O)N2CCC[C@H]2C(=O)N(C)CC(=O)N1C | BEAS-2B | = | 2.2
CC(C)[C@H]1C(=O)O[C@H](C)[C@H](NC(=O)c2c3nc4c(C(=O)N[C@@H]5C(=O)N[C@H](C(C)C)C(=O)N6CCC[C@H]6C(=O)N(C)CC(=O)N(C)[C@@H](C(C)C)C(=O)O[C@@H]5C)ccc(F)c4oc-3c(F)c(=O)c2N)C(=O)N[C@H](C(C)C)C(=O)N2CCC[C@H]2C(=O)N(C)CC(=O)N1C | BEAS-2B | > | 50
CC(C)[C@H]1C(=O)O[C@H](C)[C@H](NC(=O)c2c3nc4c(C(=O)N[C@@H]5C(=O)N[C@H](C(C)C)C(=O)N6CCC[C@H]6C(=O)N(CO)CC(=O)N(C)[C@@H](C(C)C)C(=O)O[C@@H]5C)ccc(Br)c4oc-3c(Br)c(=O)c2N)C(=O)N[C@H](C(C)C)C(=O)N2CCC[C@H]2C(=O)N(C)CC(=O)N1C | BEAS-2B | = | 5.8

----------
tested on: Staphylococcus aureus; assay: Antimicrobial activity against Staphylococcus aureus Sau 1862 assessed as inhibition of bacterial growth incubated for 16 to 18 hrs by broth micro dilution technique; assay type: functional; details: time 16-18 hrs
experimental.readout: MIC (µg/mL)

structure.smiles | experimental.readout | reported.measurement
CC(C)[C@H]1C(=O)O[C@H](C)[C@H](NC(=O)c2c3nc4c(C(=O)N[C@@H]5C(=O)N[C@H](C(C)C)C(=O)N6CCC[C@H]6C(=O)N(C)CC(=O)N(C)[C@@H](C(C)C)C(=O)O[C@@H]5C)cccc4oc-3c(I)c(=O)c2N)C(=O)N[C@H](C(C)C)C(=O)N2CCC[C@H]2C(=O)N(C)CC(=O)N1C | MIC | 4
CC(C)[C@H]1C(=O)O[C@H](C)[C@H](NC(=O)c2c3nc4c(C(=O)N[C@@H]5C(=O)N[C@H](C(C)C)C(=O)N6CCC[C@H]6C(=O)N(C)CC(=O)N(C)[C@@H](C(C)C)C(=O)O[C@@H]5C)ccc(Br)c4oc-3c(Br)c(=O)c2N)C(=O)N[C@H](C(C)C)C(=O)N2C[C@@H](O)C[C@H]2C(=O)N(C)CC(=O)N1C | MIC | 16
CC(C)[C@H]1C(=O)O[C@H](C)[C@H](NC(=O)c2c3nc4c(C(=O)N[C@@H]5C(=O)N[C@H](C(C)C)C(=O)N6CCC[C@H]6C(=O)N(C)CC(=O)N(C)[C@@H](C(C)C)C(=O)O[C@@H]5C)ccc(I)c4oc-3cc(=O)c2N)C(=O)N[C@H](C(C)C)C(=O)N2CCC[C@H]2C(=O)N(C)CC(=O)N1C | MIC | 2

----------
The following compounds are listed with their measured IC50 values.
system: BEAS-2B; test: Cytotoxicity against human BEAS-2B cells assessed as growth inhibition incubated for 68 hrs by MTT assay; format: cell-based
experimental.readout: IC50

structure.smiles | reported.measurement
CC(C)[C@H]1C(=O)O[C@H](C)[C@H](NC(=O)c2c3nc4c(C(=O)N[C@@H]5C(=O)N[C@H](C(C)C)C(=O)N6CCC[C@H]6C(=O)N(C)CC(=O)N(C)[C@@H](C(C)C)C(=O)O[C@@H]5C)ccc(Cl)c4oc-3c(Cl)c(=O)c2N)C(=O)N[C@H](C(C)C)C(=O)N2CCC[C@H]2C(=O)N(C)CC(=O)N1C | 1000 nM
CC(C)[C@H]1C(=O)O[C@H](C)[C@H](NC(=O)c2c3nc4c(C(=O)N[C@@H]5C(=O)N[C@H](C(C)C)C(=O)N6CCC[C@H]6C(=O)N(C)CC(=O)N(C)[C@@H](C(C)C)C(=O)O[C@@H]5C)ccc(Br)c4oc-3c(Br)c(=O)c2N)C(=O)N[C@H](C(C)C)C(=O)N2C[C@@H](O)C[C@H]2C(=O)N(C)CC(=O)N1C | 900 nM
CC(C)[C@H]1C(=O)O[C@H](C)[C@H](NC(=O)c2c3nc4c(C(=O)N[C@@H]5C(=O)N[C@H](C(C)C)C(=O)N6CCC[C@H]6C(=O)N(C)CC(=O)N(C)[C@@H](C(C)C)C(=O)O[C@@H]5C)ccc(I)c4oc-3cc(=O)c2N)C(=O)N[C@H](C(C)C)C(=O)N2CCC[C@H]2C(=O)N(C)CC(=O)N1C | 500 nM
CC(C)[C@H]1C(=O)O[C@H](C)[C@H](NC(=O)c2c3nc4c(C(=O)N[C@@H]5C(=O)N[C@H](C(C)C)C(=O)N6CCC[C@H]6C(=O)N(C)CC(=O)N(C)[C@@H](C(C)C)C(=O)O[C@@H]5C)cccc4oc-3c(I)c(=O)c2N)C(=O)N[C@H](C(C)C)C(=O)N2CCC[C@H]2C(=O)N(C)CC(=O)N1C | 12400 nM

----------
system: Staphylococcus aureus; test: Antimicrobial activity against Staphylococcus aureus Sau 745524 assessed as inhibition of bacterial growth incubated for 16 to 18 hrs by broth micro dilution technique; type: functional; conditions: time 16-18 hrs

structure.smiles | MIC (µg/mL)
CC(C)[C@H]1C(=O)O[C@H](C)[C@H](NC(=O)c2c3nc4c(C(=O)N[C@@H]5C(=O)N[C@H](C(C)C)C(=O)N6CCC[C@H]6C(=O)N(C)CC(=O)N(C)[C@@H](C(C)C)C(=O)O[C@@H]5C)ccc(Cl)c4oc-3c(Cl)c(=O)c2N)C(=O)N[C@H](C(C)C)C(=O)N2CCC[C@H]2C(=O)N(C)CC(=O)N1C | 16
CC(C)[C@H]1C(=O)O[C@H](C)[C@H](NC(=O)c2c3nc4c(C(=O)N[C@@H]5C(=O)N[C@H](C(C)C)C(=O)N6CCC[C@H]6C(=O)N(C)CC(=O)N(C)[C@@H](C(C)C)C(=O)O[C@@H]5C)cccc4oc-3c(Cl)c(=O)c2N)C(=O)N[C@H](C(C)C)C(=O)N2CCC[C@H]2C(=O)N(C)CC(=O)N1C | 8
CC(C)[C@H]1C(=O)O[C@H](C)[C@H](NC(=O)c2c3nc4c(C(=O)N[C@@H]5C(=O)N[C@H](C(C)C)C(=O)N6CCC[C@H]6C(=O)N(CO)CC(=O)N(C)[C@@H](C(C)C)C(=O)O[C@@H]5C)ccc(Br)c4oc-3c(Br)c(=O)c2N)C(=O)N[C@H](C(C)C)C(=O)N2CCC[C@H]2C(=O)N(C)CC(=O)N1C | 32
